test: Displacement of [3H]epibatine from nAChR in rat cortical membrane; format: cell membranes
PROPERTY NAME: pKi
Scale for pKi: -log10 of concentration given in mol/L; no unit attached.

Use the examples below as a reference point.
Ask: Any idea what its pKi is? The compound is Ic1cncc([C@H]2C[C@H]3CC[C@H]2N3)c1 (stereo in doubt; (-)-4)
Reply: 10.35

Ask: Another compound to look at: CN1[C@@H]2CC[C@@H]1[C@@H](c1cncc(I)c1)C2 (stereo in doubt; (-)-5)
Reply: 8.77

Ask: And then CN1[C@@H]2CC[C@@H]1[C@@H](c1cncc(I)c1)C2 (stereo in doubt; (+)-5) , what is it?
Reply: 10.26

Ask: And for Ic1cncc([C@H]2C[C@H]3CC[C@H]2N3)c1 (stereo in doubt; (+)-4) ?
Reply: 10.32

Others:
Ask: # pKi lookup, item Clc1ccc(C2CC3CCC2N3)cn1 (stereo not given) [EPIBATIDINE]
Reply: 10.34

The measurements presented in this section are drawn from ChEMBL document CHEMBL1152135.
